# SYSTEM: T1, cSNK:BSA conjugate (bovine, head-to-tail cyclized; conjugated to BSA carrier)
# T1 construct: also called BSA-cSNK
# T1 sequence (P02769 25-607 limits assumed): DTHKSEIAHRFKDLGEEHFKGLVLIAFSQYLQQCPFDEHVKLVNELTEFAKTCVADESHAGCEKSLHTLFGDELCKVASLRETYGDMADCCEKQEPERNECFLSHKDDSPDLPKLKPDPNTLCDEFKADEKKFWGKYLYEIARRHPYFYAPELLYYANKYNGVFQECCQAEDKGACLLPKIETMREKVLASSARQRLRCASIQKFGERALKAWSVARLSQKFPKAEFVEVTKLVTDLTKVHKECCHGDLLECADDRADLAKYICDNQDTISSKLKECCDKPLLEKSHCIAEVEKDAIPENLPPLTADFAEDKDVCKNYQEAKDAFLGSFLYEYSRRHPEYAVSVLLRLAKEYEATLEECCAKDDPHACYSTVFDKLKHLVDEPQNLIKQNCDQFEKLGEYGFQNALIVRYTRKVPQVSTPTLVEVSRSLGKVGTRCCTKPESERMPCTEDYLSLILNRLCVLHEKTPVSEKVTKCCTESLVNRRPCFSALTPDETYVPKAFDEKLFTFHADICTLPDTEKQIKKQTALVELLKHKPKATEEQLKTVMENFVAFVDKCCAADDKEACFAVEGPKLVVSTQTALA
# TEST_METHOD_NOTES: BLI 2:1 fit, site 1; 12.5 nM row
Known koff of a selection of binders
Record the value in s⁻¹, omitting the unit from your answer.

Some binders with recorded koff:
hu5E3-IgG1 (antibody, V domains shown, human IgG1/kappa; also called humanized 5E3 IgG1; IHA variant) VH: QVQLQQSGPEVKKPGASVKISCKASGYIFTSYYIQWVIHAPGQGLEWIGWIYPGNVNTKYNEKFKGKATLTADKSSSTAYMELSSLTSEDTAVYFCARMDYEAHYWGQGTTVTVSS VL: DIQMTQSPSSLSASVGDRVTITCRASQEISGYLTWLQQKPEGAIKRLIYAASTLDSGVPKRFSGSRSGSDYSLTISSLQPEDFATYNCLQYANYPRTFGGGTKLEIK	0.000825
rehu5E3-IgG4 (antibody, V domains shown, human IgG4/kappa; also called IgG4 rehu version) VH: QVQLQQSGPEVVKPGASVKISCKASGYIFTSYYIQWVIHAPGQGLEWIGWIYPGNVNTKYNEKFKGKATLTADKSSSTAYMELSSLRSEDSAVYFCARMDYEAHYWGQGTLVTVSS VL: DIQMTQSPSSLSASLGDRVTLTCRASQEISGYLTWLQQKPEKAIKRLIYAASTLDSGVPKRFSGSRSGSDYTLTISSLQPEDFADYNCLQYANYPRTFGGGTKLEIK	0.000386
hu5E3-IgG2 (antibody, V domains shown, human IgG2/kappa; also called humanized 5E3 IgG2) VH: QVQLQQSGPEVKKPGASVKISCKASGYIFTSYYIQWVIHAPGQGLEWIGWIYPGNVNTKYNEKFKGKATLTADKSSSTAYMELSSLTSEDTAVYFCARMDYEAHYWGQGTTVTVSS VL: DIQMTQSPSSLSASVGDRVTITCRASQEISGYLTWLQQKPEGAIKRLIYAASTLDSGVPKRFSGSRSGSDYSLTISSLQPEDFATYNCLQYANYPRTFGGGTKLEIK	0.000762
hu5E3-IgG4 (antibody, V domains shown, human IgG4/kappa; also called humanized 5E3 IgG4) VH: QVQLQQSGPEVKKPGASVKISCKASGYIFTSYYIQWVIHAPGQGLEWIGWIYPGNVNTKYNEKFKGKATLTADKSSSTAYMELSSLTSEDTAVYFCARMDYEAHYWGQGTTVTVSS VL: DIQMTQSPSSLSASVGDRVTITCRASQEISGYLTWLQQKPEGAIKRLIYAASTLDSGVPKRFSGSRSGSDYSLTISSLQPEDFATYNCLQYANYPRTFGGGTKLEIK	0.00055

The record that follows has no koff shown yet.
Query (binder): murine monoclonal antibody 5E3 (antibody, V domains shown, mouse antibody of the 5E3 hybridoma; also called murine 5E3; m5E3) VH: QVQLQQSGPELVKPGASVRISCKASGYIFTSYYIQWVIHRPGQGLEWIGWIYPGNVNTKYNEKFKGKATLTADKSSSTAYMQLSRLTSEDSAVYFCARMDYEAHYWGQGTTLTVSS VL: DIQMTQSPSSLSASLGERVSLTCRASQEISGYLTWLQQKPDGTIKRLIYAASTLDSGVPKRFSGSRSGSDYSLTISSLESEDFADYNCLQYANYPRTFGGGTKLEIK ; field requested: koff 0.000428

Taken from patent US20170008955A1.
